System: Zea mays (ZEAMX)
test_details: Pre-emergence herbicidal test
Format: in vivo
stated_conditions: 1000 g/ha, evaluated after 13 days
Would you mind telling me the reported percentage damage caused to the plant, five-point scale, ZEAMX of each entry?

IN: Supply reported percentage damage caused to the plant, five-point scale, ZEAMX belonging to this compound: CS(=O)(=O)c1cccc2c1c(=O)c(C(=O)O)nn2-c1ccc(Cl)cc1Cl
OUT: 0 (0=0%)

IN: Supply reported percentage damage caused to the plant, five-point scale, ZEAMX belonging to this compound: CCCCCCCCCCCOC(=O)c1nn(-c2ccc(OC(F)(F)F)cc2)c2cccc(S(C)(=O)=O)c2c1=O
OUT: 1 (1=10-20%)

IN: Supply reported percentage damage caused to the plant, five-point scale, ZEAMX belonging to this compound: O=C(O)c1nn(-c2ccc(OC(F)(F)F)cc2)c2cccc([S+]([O-])CC(F)(F)F)c2c1=O (stereo not shown)
OUT: 0 (0=0%)

IN: Supply reported percentage damage caused to the plant, five-point scale, ZEAMX belonging to this compound: O=C(O)c1nn(-c2ccc(OC(F)(F)F)cc2)c2cccc(S(=O)(=O)CC(F)(F)F)c2c1=O
OUT: 1 (1=10-20%)

IN: Supply reported percentage damage caused to the plant, five-point scale, ZEAMX belonging to this compound: CCOC(=O)c1nn(-c2ccc(OC(F)(F)F)cc2)c2cc(CC(C)C)cc(S(C)(=O)=O)c2c1=O
OUT: 2 (2=21-40%)

IN: Supply reported percentage damage caused to the plant, five-point scale, ZEAMX belonging to this compound: CC[S+]([O-])c1cccc2c1c(=O)c(C(=O)O)nn2-c1ccc(OC(F)(F)F)cc1 (stereo not shown)
OUT: 0 (0=0%)

IN: Supply reported percentage damage caused to the plant, five-point scale, ZEAMX belonging to this compound: C#CCCOC(=O)c1nn(-c2ccc(OC(F)(F)F)cc2)c2cccc(S(C)(=O)=O)c2c1=O
OUT: 0 (0=0%)
